Ref: patent US12310975B2

- Target or test system: BCL6 (Homo sapiens (Human))
- Assay: BCL6 TR-FRET assay (BCL6-Avitag-Biotin / BCoR-Cy5 peptide)
- Type: binding
- Condition notes: read-out: IC50
pIC50: −log10 of the molar value.
pIC50 values for the molecules below.

Please review the entries below; each comes with its answer.
1. CNC(=O)COc1cc2cc(Nc3nc(N4CCC(O[C@H]5C[C@H](COc6cccc7c6C(=O)N(C6CCC(=O)NC6=O)C7=O)N(C)C5)CC4)ncc3Cl)ccc2n(C(C)C)c1=O (some centres unmarked) = 7.30 to 8.00
2. CNC(=O)COc1cc2cc(Nc3nc(N4CCN(CC5CCC6(CC5)CN(c5c(F)ccc7c5C(=O)N(C5CCC(=O)NC5=O)C7=O)C6)CC4)ncc3Cl)ccc2n(C(C)C)c1=O (centres unmarked) = > 8.00
3. CNC(=O)COc1cc2cc(Nc3nc(N4CCC(OC5CC6(CCN(c7cccc8c7CN(C7CCC(=O)NC7=O)C8=O)CC6)C5)CC4)ncc3Cl)ccc2n(C(C)C)c1=O (centres unmarked) = > 8.00
4. Cn1c(=O)n(CCC(C)(C)O)c2cc(Nc3nc(N4CCC(OC5CC6(CCN(c7cccc8c7C(=O)N(C7CCC(=O)NC7=O)C8=O)CC6)C5)CC4)ncc3Cl)ccc21 (centres unmarked) = 7.30 to 8.00

Now look at this entry.
Ask: # input molecule: CNC(=O)COc1cc2cc(Nc3nc(N4CCC(CN5CCC6(C5)CN(c5cccc7c5C(=O)N(C5CCC(=O)NC5=O)C7=O)C6)CC4)ncc3Cl)ccc2n(C(C)C)c1=O (centres unmarked) ; wanted: its pIC50
Result: > 8.00

====

- Target or test system: BCL6 (Homo sapiens (Human), UniProt P41182)
- Assay: Immunofluorescence high content imaging of BCL6 degradation in T47D cells
- Type: cell-based
This section presents compounds with their documented IC50 values.

Some solved entries appear below for comparison.
1. CCn1c(=O)c(OCC(=O)NC)cc2cc(Nc3nc(N4CCN(CC5CN(C6CN(c7ccc8c(c7)C(=O)N(C7CCC(=O)NC7=O)C8=O)C6)C5)CC4)ncc3Cl)ccc21 (centres unmarked) [compound 302] = 10 to 50 nM
2. CNC(=O)COc1cc2cc(Nc3nc(N4CCC(CCOC5CN(c6cccc7c6C(=O)N(C6CCC(=O)NC6=O)C7=O)C5)CC4)ncc3Cl)ccc2n(C)c1=O (centres unmarked) [compound 252] = < 10 nM
3. CC(=O)COc1cc2cc(Nc3nc(N4CCC(OCCOC5CCN(c6ccc7c(c6)C(=O)N(C6CCC(=O)NC6=O)C7=O)CC5)C4)ncc3Cl)ccc2n(C)c1=O (centres unmarked) [compound 180] = ≥ 100 nM
4. CNC(=O)Cc1cc2cc(Nc3nc(N4CCC(CN5CCN(c6ccc7c(c6)C(=O)N(C6CCC(=O)NC6=O)C7=O)CC5)CC4)ncc3Cl)ccc2n(C)c1=O (centres unmarked) [compound 239] = ≥ 100 nM

Next, consider the following compound.
Ask: Name the reported IC50 value associated with the compound CNC(=O)COc1cc2cc(Nc3nc(N4CCC(OC5CCN(c6cccc7c6C(=O)N(C6CCC(=O)NC6=O)C7=O)CC5)CC4)ncc3Cl)ccc2n(C)c1=O (centres unmarked) [compound 264]
Result: < 10 nM

====

- Target or test system: BCL6 (Homo sapiens (Human), UniProt P41182)
- Assay: BCL6 TR-FRET assay (BCL6-Avitag-Biotin / BCoR-Cy5 peptide)
- Format: binding
Measurement label: EC50

Worked examples follow.
1) CNC(=O)[C@@H](C)Oc1cc2cc(Nc3nc(N4CCC(CN5CCN(c6ccc7c(c6)C(=O)N([C@@H]6CCC(=O)NC6=O)C7=O)CC5)CC4)ncc3Cl)ccc2n(C)c1=O = 10 to 50 nM
2) CC(=O)c1cc2cc(Nc3nc(N4CCC(CN5CCN(c6ccc7c(c6)C(=O)N(C6CCC(=O)NC6=O)C7=O)CC5)CC4)ncc3Cl)ccc2n(C)c1=O (stereo not shown) = > 100 nM
3) CNC(=O)COc1cc2cc(Nc3nc(N4CCN(CC5CCN(c6ccc(C(=O)NC7CCC(=O)NC7=O)cc6)CC5)CC4)ncc3Cl)ccc2n(C)c1=O (stereo not shown) = < 10 nM
4) CNC(=O)COc1cc2cc(Nc3nc(N4CCO[C@@H](COc5ccc6c(c5)C(=O)N(C5CCC(=O)NC5=O)C6=O)C4)ncc3Cl)ccc2n(C)c1=O (stereo partly shown) = > 100 nM
5) CC(=O)[C@H](C)Oc1cc2cc(Nc3nc(N4CCC(CN5CCN(c6ccc7c(c6)C(=O)N([C@@H]6CCC(=O)NC6=O)C7=O)CC5)CC4)ncc3Cl)ccc2n(C)c1=O = > 100 nM
6) CC(=O)COc1cc2cc(Nc3nc(N4CCC(CN5CC(C6CN(c7ccc8c(c7)C(=O)N(C7CCC(=O)NC7=O)C8=O)C6)C5)CC4)ncc3Cl)ccc2n(C)c1=O (stereo not shown) = < 10 nM
7) CNC(=O)COc1cc2cc(Nc3nc(N4CCC(OC5CN(c6ccc7c(c6)C(=O)N(C6CCC(=O)NC6=O)C7=O)C5)CC4)ncc3Cl)ccc2n(C)c1=O (stereo not shown) = > 100 nM
8) CNC(=O)COc1cc2cc(Nc3nc(N4CCN(C5CCN(c6cccc7c6C(=O)N(C6CCC(=O)NC6=O)C7=O)CC5)CC4)ncc3Cl)ccc2n(C)c1=O (stereo not shown) = > 100 nM

Ask: For BCL6 (Homo sapiens (Human), UniProt P41182), provide EC50 of CNC(=O)COc1cc2cc(Nc3nc(N4CCCN(c5ccc6c(c5)C(=O)N(C5CCC(=O)NC5=O)C6=O)CC4)ncc3Cl)ccc2n(C)c1=O (stereo not shown) please.
Result: 50 to 100 nM

Ask: Form: Entry = CNC(=O)COc1cc2cc(Nc3nc(N4CCN(CC5CCN(c6cnc(C(=O)NC7CCC(=O)NC7=O)cn6)CC5)CC4)ncc3Cl)ccc2n(C)c1=O (stereo not shown) | System = BCL6 (Homo sapiens (Human), UniProt P41182) | EC50 = ____
Result: 10 to 50 nM

Ask: API: value(readout= EC50, system= BCL6 (Homo sapiens (Human), UniProt P41182), query= CNC(=O)COc1cc2cc(Nc3nc(N4CCN(C(C)(C)CN5CCN(c6ccc7c(c6)C(=O)N(C6CCC(=O)NC6=O)C7=O)CC5)CC4)ncc3Cl)ccc2n(C)c1=O (stereo not shown) )
Result: 10 to 50 nM

Ask: // lookup EC50 | system=BCL6 (Homo sapiens (Human), UniProt P41182) | key= CNC(=O)COc1cc2cc(Nc3nc(N4CCN(CC5CCN(c6ccc(F)c(C(=O)NC7CCC(=O)NC7=O)c6)CC5)CC4)ncc3Cl)ccc2n(C)c1=O (stereo not shown)
Result: < 10 nM

Ask: Item: CNC(=O)COc1cc2cc(Nc3nc(N4CCC(C(C)(C)N5CCN(c6ccc7c(c6)C(=O)N(C6CCC(=O)NC6=O)C7=O)CC5)CC4)ncc3Cl)ccc2n(C)c1=O (stereo not shown) Test system: BCL6 (Homo sapiens (Human), UniProt P41182) Read-out: EC50 Value: ?
Result: > 100 nM
